Test system: K4 kissing-loop RNA reporter;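 further: bound reporter read as fluorescence of individual clusters on recovered sequencing chips by microscopy, with normalized cluster intensities fitted with a binding model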
Experiment Summary: apparent KD of K4 kissing-loop reporter; higher = weaker reporter binding
Assay Setup: Eterna round: R107; input ligand: tryptophan 2.4 mM
Note to self: class = bucket of apparent KD of K4 kissing-loop reporter, per 0: < 200 nM; 1: ≥ 200 nM and < 500 nM; 2: ≥ 500 nM

{"columns": ["Chain Sequence", "Target Entity", "Qualitative Label"],
 "data": [
  ["UGCCGGAAGGCGAGCGCUCCCACUCCGGAAGGAGCGCCCGUAAGGGCAGGUAGGUCGCCGGAGUGAUGUUCCGGUGGAGGGCUCG [#2 Exclusion - Arginine A Attempt #22 (Inspired by Omei)]", "K4 kissing-loop RNA reporter", 1],
  ["ACCAUCAAAGAUGGCCUCGACACCGCUGAUACCAGAGUGAAAACACUCCCUUGGCAGCAGGUGAGUGAUGUUCACAGUCGAAGGA [Omel KL Theo A SS B v1]", "K4 kissing-loop RNA reporter", 1],
  ["ACGUGCACGAGUGAUGUUUGAAAAUCUGAAGGAGCGGGCGAAAGCCCAGGUAGGUCGCAGAAUAGCACGAGCCACGAAAGUGGCA", "K4 kissing-loop RNA reporter", 0],
  ["GCCCGGGCGAGUGAUGUUCGCCCACGUGAUACCAGUGCCAUCCAACACCCUUGGCAGCACGCGGGCAGUGAUGUUGCCCUUGUAU [Exclusion Theophylline A GF 4]", "K4 kissing-loop RNA reporter", 0],
  ["AAGUCAUAGGCAGGAUAUGCUUAGUAUUAAGGCCAUAUAUACGUAUAGAGUGAUGUUUUGUACCAGGCAGAAGGGCUACAUCCGU [FMN B Excl V5 (+2U)]", "K4 kissing-loop RNA reporter", 2],
  ["ACCACCAGCCGCACGAUACACGGGCAUUACCGAGGACCGGUACGGCCGCCACUCGCCCGCACGCUGGAUCGAGUGAUGUUCGAUC [theeternabot_sameState_KL_Trp_A_15]", "K4 kissing-loop RNA reporter", 1],
  ["UAGUCAUACAGAGGAUAUCGUAUGAGUGAUGUUCAUACGAUAUAAUCUAAUUGUAUAGAUGUUCGACGAGAAGGCUGUAUGACUA [FMN B Ex t1a]", "K4 kissing-loop RNA reporter", 0],
  ["UGUGUUUACCUGACUCAGUGAUGUUGAGAAGGAGCGUGAGAAGGCACAGGUAGGUCGCUCAACCUAAAUUCAGGUGAGCACUAAA", "K4 kissing-loop RNA reporter", 0],
  ["UGAUACCAGACGGCCGCCACUCCCGUAAGUCAAAGACUUACGAAGAGGGUUUUUCAGUGAUGUUGGAGGACCGGGUCUGGUAUCU [FiskerMod 17 - Jieux - Exclusion - Tryptophan B]", "K4 kissing-loop RNA reporter", 2],
  ["UGUCAUUGGUCUGAUACCAGUACCCUUGGCAGCCAAGGAGUGAUGUUCCGAGGAUACCAGUGCCCUUGGCAGCAGACCGAUGACU [TheoBS 27 #DoubleAptamer #SwitchBubble]", "K4 kissing-loop RNA reporter", 1]
]}
